Give measured half-life at 0.5 μM for each item. Keep answers brief.
Test: Mouse liver microsome stability assay
Assay type: in vitro ADME
Conditions: male, CD1, mouse, microsomes, pH 7.4
Report the value in min with no unit label.

Form: compound = Cn1cc(-c2cc(NS(C)(=O)=O)ccc2Oc2cccnc2)c2cc[nH]c2c1=O [Example 11] ; half-life at 0.5 μM = 27

Form: compound = CNS(=O)(=O)c1ccc(OCC2CC2)c(-c2cn(C)c(=O)c3[nH]ccc23)c1 [Example 250] ; half-life at 0.5 μM = 37

Form: compound = Cn1cc(-c2cc(C(=O)NCCc3c[nH]c4ccccc34)ccc2Oc2ccc(F)cc2F)c2cc[nH]c2c1=O [Example 133] ; half-life at 0.5 μM = 3

Form: compound = Cn1cc(-c2cc(C(=O)NC3CCCC3)ccc2Oc2ccccc2)c2cc[nH]c2c1=O [Example 15] ; half-life at 0.5 μM = 7

Form: compound = CN(C)c1cccc(Oc2ccc(S(C)(=O)=O)cc2-c2cn(C)c(=O)c3[nH]ccc23)c1 [Example 180] ; half-life at 0.5 μM = 5

Form: compound = Cn1cc(-c2cc(S(N)(=O)=O)cnc2Nc2ccccc2)c2cc[nH]c2c1=O [Example 111] ; half-life at 0.5 μM = 63

Form: compound = CCS(=O)(=O)Nc1ccc(Oc2ccc(F)cc2F)c(-c2cn(C)c(=O)c3[nH]c(C(=O)N4CCN(C)CC4)cc23)c1 [Example 338] ; half-life at 0.5 μM = 20

Form: compound = Cn1cc(-c2cc(S(=O)(=O)C(F)(F)F)ccc2OCC2CC2)c2cc[nH]c2c1=O [Example 243] ; half-life at 0.5 μM = 109

Form: compound = CCS(=O)(=O)N(CC1CCCO1)c1ccc(Oc2ccc(F)cc2F)c(-c2cn(C)c(=O)c3[nH]ccc23)c1 (stereo not shown) [Example 345] ; half-life at 0.5 μM = 2

Form: compound = Cn1cc(-c2cc(C(=O)NC3CCS(=O)(=O)C3)ccc2Oc2ccccc2)c2cc[nH]c2c1=O (stereo not shown) [Example 18] ; half-life at 0.5 μM = 15

Form: compound = Cn1cc(-c2cc(NS(=O)(=O)CC(F)(F)F)ccc2OC2CCCOC2)c2cc[nH]c2c1=O (stereo not shown) [Example 107] ; half-life at 0.5 μM = 8

Form: compound = Cn1cc(-c2cc(N3CCCS3(=O)=O)ccc2Oc2ccc(F)cc2F)c2cc[nH]c2c1=O [Example 43] ; half-life at 0.5 μM = 5

Form: compound = Cn1cc(-c2cc(C(=O)NCC(F)F)ccc2Oc2ccccc2)c2cc[nH]c2c1=O [Example 16] ; half-life at 0.5 μM = 22

Form: compound = CN(C)C(=O)CN1CCN(C(=O)c2ccc(Oc3ccc(F)cc3F)c(-c3cn(C)c(=O)c4[nH]ccc34)c2)CC1 [Example 127] ; half-life at 0.5 μM = 20

Form: compound = CCS(=O)(=O)c1ccc(OC2CCC(=O)CC2)c(-c2cn(C)c(=O)c3[nH]ccc23)c1 [Example 199] ; half-life at 0.5 μM = 3

Form: compound = CCOC(=O)c1cc2c(-c3cc(N)ccc3Oc3ccccc3)nn(C)c(=O)c2[nH]1 [Example 74] ; half-life at 0.5 μM = 5

Form: compound = Cn1cc(-c2cc(S(C)(=O)=O)ccc2Oc2cccc(C#N)c2)c2cc[nH]c2c1=O [Example 155] ; half-life at 0.5 μM = 25

Form: compound = CCOC(=O)N1CCC(Oc2ccc(S(=O)(=O)CC)cc2-c2cn(C)c(=O)c3[nH]ccc23)CC1 [Example 301] ; half-life at 0.5 μM = 13

Form: compound = Cn1cc(-c2cc(C(=O)NCCN3CCCC3=O)ccc2Oc2ccc(F)cc2F)c2cc[nH]c2c1=O [Example 122] ; half-life at 0.5 μM = 2

Form: compound = COc1cc(Br)ccc1-c1cn(C)c(=O)c2[nH]ccc12 [Example 241] ; half-life at 0.5 μM = 4

Form: compound = CCS(=O)(=O)Nc1ccc(Oc2ccc(F)cc2F)c(-c2cn(C)c(=O)c3[nH]ccc23)c1 [Example 36] ; half-life at 0.5 μM = 41

Form: compound = Cn1cc(-c2cc(S(C)(=O)=O)ccc2Oc2cc(F)cc(F)c2)c2cc[nH]c2c1=O [Example 176] ; half-life at 0.5 μM = 29

Form: compound = Cn1cc(-c2cc(C(=O)N3CCC(NC(=O)OC(C)(C)C)CC3)ccc2Oc2ccc(F)cc2F)c2cc[nH]c2c1=O [Example 135] ; half-life at 0.5 μM = 5

Form: compound = Cn1cc(-c2cc(CN3CCCS3(=O)=O)ccc2Oc2ccccc2)c2cc[nH]c2c1=O [Example 41] ; half-life at 0.5 μM = 10

* * *

Assay: Human liver microsome stability assay
Type: in vitro ADME
Settings: both sexes, human, microsomes, pH 7.4
Assay readout: half-life at 0.5 μM (min)
Report the value in min with no unit label.

Form: compound = CCS(=O)(=O)Nc1ccc(OCC(C)(C)C)c(-c2cn(C)c(=O)c3[nH]ccc23)c1 ; half-life at 0.5 μM = 18

Form: compound = COc1cc(Br)ccc1-c1cn(C)c(=O)c2[nH]ccc12 ; half-life at 0.5 μM = 39

Form: compound = CCOC(=O)c1cc2c(-c3cc(N)ccc3Oc3ccccc3)nn(C)c(=O)c2[nH]1 ; half-life at 0.5 μM = 17

Form: compound = CC(=O)Nc1ccc(Oc2ccccc2)c(-c2cn(C)c(=O)c3[nH]ccc23)c1 ; half-life at 0.5 μM = 30

Form: compound = CN(C)c1cccc(Oc2ccc(S(C)(=O)=O)cc2-c2cn(C)c(=O)c3[nH]ccc23)c1 ; half-life at 0.5 μM = 12

Form: compound = Cn1cc(-c2cc(S(C)(=O)=O)ccc2OC2C3CC4CC(C3)CC2C4)c2cc[nH]c2c1=O (centres unmarked) ; half-life at 0.5 μM = 3

Form: compound = CCS(=O)(=O)c1ccc(OC2CCN(C(=O)OC(C)(C)C)CC2)c(-c2cn(C)c(=O)c3[nH]ccc23)c1 ; half-life at 0.5 μM = 56

Form: compound = CCS(=O)(=O)N1CCN(C(=O)c2ccc(Oc3ccc(F)cc3F)c(-c3cn(C)c(=O)c4[nH]ccc34)c2)CC1 ; half-life at 0.5 μM = 38

* * *

Experiment: Mouse liver microsome stability assay
Type: in vitro ADME
Details: male, CD1, mouse, microsomes, pH 7.4
1 means recorded half-life at 0.5 μM is 50 min or above; 0 means it is below 50 min.

## Task Textbook exercise: given the entry Cn1cc(-c2cc(S(C)(=O)=O)ccc2Oc2ccccc2Cl)c2cc[nH]c2c1=O , state whether its half-life at 0.5 μM is greater than or equal to 50 min.
## Result 0

## Task Textbook exercise: given the entry Cn1cc(-c2ccccc2C(=O)N2CCOCC2)c2cc[nH]c2c1=O , state whether its half-life at 0.5 μM is greater than or equal to 50 min.
## Result 1

## Task Textbook exercise: given the entry Cn1cc(-c2cc(NS(C)(=O)=O)ccc2OC2CCCC2)c2cc[nH]c2c1=O , state whether its half-life at 0.5 μM is greater than or equal to 50 min.
## Result 0

## Task Textbook exercise: given the entry Cn1cc(-c2cc(C(N)=O)ccc2Oc2ccc(F)cc2F)c2cc[nH]c2c1=O , state whether its half-life at 0.5 μM is greater than or equal to 50 min.
## Result 0

## Task Textbook exercise: given the entry Cn1cc(-c2cc(C(=O)NCC(C)(C)O)ccc2Oc2ccc(F)cc2F)c2cc[nH]c2c1=O , state whether its half-life at 0.5 μM is greater than or equal to 50 min.
## Result 0

## Task Textbook exercise: given the entry CN(C)C(=O)c1cc2c(-c3cc(S(C)(=O)=O)ccc3Oc3ccc(F)cc3F)cn(C)c(=O)c2[nH]1 , state whether its half-life at 0.5 μM is greater than or equal to 50 min.
## Result 1

## Task Textbook exercise: given the entry Cn1cc(-c2cc(S(N)(=O)=O)cnc2OCC2CC2)c2cc[nH]c2c1=O , state whether its half-life at 0.5 μM is greater than or equal to 50 min.
## Result 1

## Task Textbook exercise: given the entry CCS(=O)(=O)c1ccc(OC2CCN(C(=O)OC(C)(C)C)CC2)c(-c2cn(C)c(=O)c3[nH]ccc23)c1 , state whether its half-life at 0.5 μM is greater than or equal to 50 min.
## Result 0

* * *

Test: Rat liver microsome stability assay
Format: in vitro ADME
Conditions: rat liver microsomes (male Sprague-Dawley), 0.5 μM test compound, 0.25 mg/mL microsomal protein, pH 7.4, 37° C.; read-out: Stability in rat liver microsomes (t1/2 in minutes)
Assay readout: half-life at 0.5 μM (h)
Report the value in h with no unit label.

Form: compound = Cn1cc(-c2cc(S(C)(=O)=O)ccc2Oc2cccc3cnccc23)c2cc[nH]c2c1=O [Example 161] ; half-life at 0.5 μM = 0.167

Form: compound = Cn1cc(-c2cc(S(C)(=O)=O)ccc2Oc2ccc(CC(N)=O)cc2)c2cc[nH]c2c1=O [Example 165] ; half-life at 0.5 μM = 1.85

Form: compound = Cn1cc(-c2cc(NS(C)(=O)=O)cc(F)c2Oc2ccccc2)c2cc[nH]c2c1=O [Example 24] ; half-life at 0.5 μM = 0.0833

Values from patent US9296741B2
